As shown below, each of these compounds has a reported viability, T/C value.
Tested on: 328373-195-R-J1-PDC complex spheroids, viability % test/control;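 note: spheroids exposed to the agents for 7 days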
test method notes: Anticancer human tumor 328373-195-R-J1-PDC patient-derived head and neck squamous carcinoma cell line growth inhibition [CLK]
condition label: second compound 0.1 µM; first compound 0.1 µM; active compounds read low
Give the quantity in %, number only.

In the examples that follow, each entry is paired with its recorded viability, T/C.
Cn1ncnc1[C@H]1c2n[nH]c(=O)c3cc(F)cc(c23)N[C@@H]1c1ccc(F)cc1 + CNC(=O)c1ccc(Nc2nc(OC3CCCC3)c3c(-c4ccc5nc(C)oc5c4)c[nH]c3n2)c(OC)c1    12.2
C=CC(=O)N1CCN(c2nc(=O)n(-c3c(C)ccnc3C(C)C)c3nc(-c4c(O)cccc4F)c(F)cc23)C(C)C1 (stereo not drawn) + CN1CCN(c2cc(C(=O)Nc3cc4cc(-c5cnn(C)c5)ccc4cn3)ccn2)CC1    82.7

QUERY: Item O=C(c1cc(Cc2n[nH]c(=O)c3ccccc23)ccc1F)N1CCN(C(=O)C2CC2)CC1 + CN1CCN(c2cc(C(=O)Nc3cc4cc(-c5cnn(C)c5)ccc4cn3)ccn2)CC1 has what recorded viability, T/C?
RESULT: 81.4
